Tested on: C3H/10T1/2 cells
test.description: Anti-apoptotic activity assay: serum deprivation of C3H/10T1/2 cells
Assay type: cell-based
condition.notes: serum-deprived C3H/10T1/2 cells, 24 hours of treatment
observed.property: Concentration for Max Effect (µM)

{"molecule": "CCCCCCCC/C=C\\CCCCCCCCOC(=O)C(COP(O)(O)=S)OC (racemic) [Compound 78]", "test.result": 1}
{"molecule": "CCCCCCCC/C=C\\CCCCCCCCOCC(COP(=O)(O)O)OC (racemic) [Compound 24]", "test.result": 10}
{"molecule": "CCCCCCCC/C=C\\CCCCCCCCOCC(O)COP(=O)(O)O (racemic) [Compound 12, 3-O-Oleyl-rac-glycero-1-phosphate]", "test.result": 10}
{"molecule": "CCCCCCCCCC(=O)OC[C@@H](O)COP(=O)(O)O [10:0 LPA, reference compound]", "test.result": 30}

These entries and their values trace back to patent US6949528B1.
